# System: 134 cancer cell lines
# Experiment Notes: Cell viability assay (ATPlite, 72 hours), IC50 on cancer cell line panel
# Particulars: Homo sapiens, KLE, read-out: IC50 in cell proliferation assay, KLE cell line
Experimental Endpoint: IC50 (µM)
Answers are plain numbers, in µM.

// known answers, use as guide
Entry Cc1cc(Nc2ncc(Cl)c(Nc3ccccc3S(=O)(=O)C(C)C)n2)c(OC(C)C)cc1C1CCNCC1 [ceritinib] ; IC50 = 3.58

Entry CC(C)(C)c1nc(-c2cccc(NS(=O)(=O)c3c(F)cccc3F)c2F)c(-c2ccnc(N)n2)s1 [dabrafenib] ; IC50 = 1.56

Now take the following compound into account.
Entry CO[C@]1(C(=O)N[C@@H](C)c2ccc(-n3cc(F)cn3)nc2)CC[C@H](c2nc(C)cc(Nc3cc(C)[nH]n3)n2)CC1 [pralsetinib] ; IC50 = 1.82

---

So I've got a bunch of compounds here, and I need their pIC50 values.
# Test system: 134 cancer cell lines
# Experiment Notes: Cell viability assay (ATPlite, 72 hours), IC50 on cancer cell line panel
# Particulars: Homo sapiens, HCC4006, read-out: IC50 in cell proliferation assay
Give bare numbers, as −log10 of the molar value.

Entry C=CC(=O)N1CCC([C@@H]2CCNc3c(C(N)=O)c(-c4ccc(Oc5ccccc5)cc4)nn32)CC1 [zanubrutinib] ; pIC50 = 5.86

Next:
Entry CCc1cc2c(cc1N1CCC(N3CCOCC3)CC1)C(C)(C)c1[nH]c3cc(C#N)ccc3c1C2=O [alectinib] ; pIC50 = 5.88

---

# Assay System: panel of 255 wild-type kinases (Homo sapiens)
# Experiment Notes: Kinase panel profiling at 1 µmol/L (MSA or IMAP), percentage inhibition
# Assay type: biochemical
# Particulars: kinase PDHK2; 1 µmol/L single concentration; read-out: %-inhibition at 1 µmol/L, PDHK2
So I've got a bunch of compounds here, and I need their inhibition at 1 µM values.
Answers are plain numbers, in %.

Entry CCn1c(=O)c(-c2cc(NC(=O)Nc3ccccc3)c(F)cc2Br)cc2cnc(NC)cc21 ; inhibition at 1 µM = 0.884

Your task in this section: give inhibition at 1 µM for each listed record.
1. Cn1cc(-c2cc3c(N4CCN(c5ncc([C@@](C)(N)c6ccc(F)cc6)cn5)CC4)ncnn3c2)cn1
2. C[C@H]1Oc2cc(cnc2N)-c2c(nn(C)c2C#N)CN(C)C(=O)c2ccc(F)cc21
3. CCc1nc(C(N)=O)c(Nc2ccc(N3CCC(N4CCN(C)CC4)CC3)c(OC)c2)nc1NC1CCOCC1
4. C=CC(=O)N1CCC([C@@H]2CCNc3c(C(N)=O)c(-c4ccc(Oc5ccccc5)cc4)nn32)CC1

(A)
1: 0.651; 2: 1.88; 3: 5; 4: 5

Your task in this section: give inhibition at 1 µM for each listed record.
1. CCN1CCN(c2ccc(Nc3cc(N(C)C(=O)Nc4c(Cl)c(OC)cc(OC)c4Cl)ncn3)cc2)CC1
2. Cn1cnc2c(F)c(Nc3ccc(Br)cc3Cl)c(C(=O)NOCCO)cc21
3. COc1cc2ncnc(Nc3ccc(F)c(Cl)c3)c2cc1NC(=O)/C=C/CN1CCCCC1
4. COc1ccc(CN2C3CC2CN(c2ccc(-c4cc(OCC(C)(C)O)cn5ncc(C#N)c45)cn2)C3)cn1
5. FC(F)(F)c1ccc(CNc2ccc(Cc3c[nH]c4ncc(Cl)cc34)cn2)cn1
6. COC(=O)N[C@@H](C)CNc1nccc(-c2cn(C(C)C)nc2-c2cc(Cl)cc(NS(C)(=O)=O)c2F)n1

(A)
1. -3.38
2. 2.47
3. 2.44
4. -0.608
5. 4
6. -2

Your task in this section: give inhibition at 1 µM for each listed record.
1. O=C(Nc1cnn2ccc(N3CCC[C@@H]3c3cc(F)ccc3F)nc12)N1CC[C@H](O)C1
2. CO[C@]1(C(=O)N[C@@H](C)c2ccc(-n3cc(F)cn3)nc2)CC[C@H](c2nc(C)cc(Nc3cc(C)[nH]n3)n2)CC1
3. CN1CCN(c2ccc(C(=O)Nc3n[nH]c4ccc(Cc5cc(F)cc(F)c5)cc34)c(NC3CCOCC3)c2)CC1
4. Cn1cnc2c(F)c(Nc3ccc(Br)cc3F)c(C(=O)NOCCO)cc21
5. Cc1nc(NC(=O)N2CCC[C@H]2C(N)=O)sc1-c1ccnc(C(C)(C)C(F)(F)F)c1
6. CCN1C(=O)N(c2c(F)c(OC)cc(OC)c2F)Cc2cnc3[nH]c(CN4CCOCC4)cc3c21
7. Cc1cc(Nc2ncnc3ccc(NC4=NC(C)(C)CO4)cc23)ccc1Oc1ccn2ncnc2c1

(A)
5
1.11
4.24
-1.13
0.0902
3.53
-2

Entry C[C@H](Nc1ncnc2nc[nH]c12)c1cc2cccc(Cl)c2c(=O)n1-c1ccccc1 ; inhibition at 1 µM = 3.57

---

# Assay System: panel of 255 wild-type kinases (Homo sapiens, UniProt Q16620)
# Sequence (Q16620 32-822): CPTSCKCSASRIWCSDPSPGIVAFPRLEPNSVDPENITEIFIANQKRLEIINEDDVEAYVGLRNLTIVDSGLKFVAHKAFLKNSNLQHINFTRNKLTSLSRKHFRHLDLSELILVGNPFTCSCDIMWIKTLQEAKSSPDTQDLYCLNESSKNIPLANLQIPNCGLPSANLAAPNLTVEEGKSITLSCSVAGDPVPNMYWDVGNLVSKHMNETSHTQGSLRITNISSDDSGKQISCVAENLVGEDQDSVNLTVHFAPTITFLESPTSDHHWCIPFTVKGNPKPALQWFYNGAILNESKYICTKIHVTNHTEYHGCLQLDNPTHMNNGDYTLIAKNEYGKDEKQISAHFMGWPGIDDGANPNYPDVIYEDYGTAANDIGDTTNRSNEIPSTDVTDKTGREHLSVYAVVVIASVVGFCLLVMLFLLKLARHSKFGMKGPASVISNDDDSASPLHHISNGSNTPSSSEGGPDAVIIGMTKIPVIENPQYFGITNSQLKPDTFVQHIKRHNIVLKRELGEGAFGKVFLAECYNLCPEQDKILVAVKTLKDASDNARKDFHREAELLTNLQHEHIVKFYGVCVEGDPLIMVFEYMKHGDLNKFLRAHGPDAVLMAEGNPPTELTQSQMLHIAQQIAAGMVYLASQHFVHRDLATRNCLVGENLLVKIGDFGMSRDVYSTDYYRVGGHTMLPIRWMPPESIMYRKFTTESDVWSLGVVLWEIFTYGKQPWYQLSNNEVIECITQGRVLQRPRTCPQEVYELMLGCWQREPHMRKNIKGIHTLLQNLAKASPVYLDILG
# Experiment Notes: Kinase panel profiling at 1 µmol/L (MSA or IMAP), percentage inhibition
# Format: biochemical
# Particulars: kinase TRKB; 1 µmol/L single concentration; read-out: %-inhibition at 1 µmol/L, TRKB
So I've got a bunch of compounds here, and I need their inhibition at 1 µM values.
Please state the number and follow it with the unit.

Entry COc1ccc(CN2C3CC2CN(c2ccc(-c4cc(OCC(C)(C)O)cn5ncc(C#N)c45)cn2)C3)cn1 [selpercatinib] ; inhibition at 1 µM = 16%

Entry Cn1cnc2c(F)c(Nc3ccc(Br)cc3F)c(C(=O)NOCCO)cc21 [binimetinib] ; inhibition at 1 µM = 3.62%

Entry FC(F)(F)c1ccc(CNc2ccc(Cc3c[nH]c4ncc(Cl)cc34)cn2)cn1 [pexidartinib] ; inhibition at 1 µM = 75%

Entry CCn1c(=O)c(-c2cc(NC(=O)Nc3ccccc3)c(F)cc2Br)cc2cnc(NC)cc21 [ripretinib] ; inhibition at 1 µM = 64%

Now take the following compound into account.
Entry Cn1cc(-c2cc3c(N4CCN(c5ncc([C@@](C)(N)c6ccc(F)cc6)cn5)CC4)ncnn3c2)cn1 [avapritinib] ; inhibition at 1 µM = 48%

---

# Assay System: panel of 255 wild-type kinases (Homo sapiens)
# Experiment Notes: Kinase panel profiling at 1 µmol/L (MSA or IMAP), percentage inhibition
# Assay type: biochemical
# Particulars: BRSK2 kinase assay; 1 µmol/L single concentration; read-out: %-inhibition BRSK2
So I've got a bunch of compounds here, and I need their inhibition at 1 µM values.
Give bare numbers, in %.

// known answers, use as guide
Entry Cn1cnc2c(F)c(Nc3ccc(Br)cc3Cl)c(C(=O)NOCCO)cc21 ; inhibition at 1 µM = 4

Entry FC(F)(F)c1ccc(CNc2ccc(Cc3c[nH]c4ncc(Cl)cc34)cn2)cn1 ; inhibition at 1 µM = 5.28

Entry CCc1nc(C(N)=O)c(Nc2ccc(N3CCC(N4CCN(C)CC4)CC3)c(OC)c2)nc1NC1CCOCC1 ; inhibition at 1 µM = 23

Now take the following compound into account.
Entry C[C@H]1Oc2cc(cnc2N)-c2c(nn(C)c2C#N)CN(C)C(=O)c2ccc(F)cc21 ; inhibition at 1 µM = 36

---

# Assay System: panel of 255 wild-type kinases (Homo sapiens, UniProt P16234)
# Sequence (P16234 24-1089): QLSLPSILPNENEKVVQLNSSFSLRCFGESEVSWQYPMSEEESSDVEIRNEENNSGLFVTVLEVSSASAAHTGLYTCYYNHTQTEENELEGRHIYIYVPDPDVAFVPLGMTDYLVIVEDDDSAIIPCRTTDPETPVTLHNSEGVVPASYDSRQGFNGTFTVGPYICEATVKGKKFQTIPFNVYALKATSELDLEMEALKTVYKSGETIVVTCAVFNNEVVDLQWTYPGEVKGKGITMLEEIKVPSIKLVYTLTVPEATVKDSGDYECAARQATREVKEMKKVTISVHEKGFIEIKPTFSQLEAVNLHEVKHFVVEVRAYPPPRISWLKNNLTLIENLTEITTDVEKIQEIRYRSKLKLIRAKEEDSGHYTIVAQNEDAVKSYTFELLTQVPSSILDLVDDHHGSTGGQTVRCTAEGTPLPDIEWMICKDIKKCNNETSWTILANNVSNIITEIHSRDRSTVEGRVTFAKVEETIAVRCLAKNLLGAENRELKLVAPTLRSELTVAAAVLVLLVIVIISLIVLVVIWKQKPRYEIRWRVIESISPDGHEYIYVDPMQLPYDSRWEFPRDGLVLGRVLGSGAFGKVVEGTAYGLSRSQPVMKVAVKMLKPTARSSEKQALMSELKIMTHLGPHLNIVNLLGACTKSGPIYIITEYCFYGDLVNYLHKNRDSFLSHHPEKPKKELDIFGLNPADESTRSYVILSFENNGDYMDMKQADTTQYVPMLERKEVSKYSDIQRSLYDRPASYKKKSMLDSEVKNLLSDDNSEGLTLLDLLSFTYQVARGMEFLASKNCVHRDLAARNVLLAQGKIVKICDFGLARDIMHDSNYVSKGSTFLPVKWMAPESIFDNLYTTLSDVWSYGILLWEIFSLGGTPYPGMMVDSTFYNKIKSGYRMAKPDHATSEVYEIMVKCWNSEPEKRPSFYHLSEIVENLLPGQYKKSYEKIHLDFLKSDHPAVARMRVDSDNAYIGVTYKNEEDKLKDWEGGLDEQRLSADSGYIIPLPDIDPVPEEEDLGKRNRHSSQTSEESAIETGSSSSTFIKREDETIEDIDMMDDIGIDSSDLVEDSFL
# Experiment Notes: Kinase panel profiling at 1 µmol/L (MSA or IMAP), percentage inhibition
# Format: biochemical
# Particulars: kinase PDGFRα; 1 µmol/L single concentration; read-out: %-inhibition at 1 µmol/L, PDGFRα
Experimental Endpoint: inhibition at 1 µM (%)
Give bare numbers, in %.

Your task in this section: give inhibition at 1 µM for each listed record.
1. CCN1CCN(c2ccc(Nc3cc(N(C)C(=O)Nc4c(Cl)c(OC)cc(OC)c4Cl)ncn3)cc2)CC1
2. Cc1cc(Nc2ncnc3ccc(NC4=NC(C)(C)CO4)cc23)ccc1Oc1ccn2ncnc2c1
3. C[C@H]1Oc2cc(cnc2N)-c2c(nn(C)c2C#N)CN(C)C(=O)c2ccc(F)cc21
4. CN1CCN(c2ccc(C(=O)Nc3n[nH]c4ccc(Cc5cc(F)cc(F)c5)cc34)c(NC3CCOCC3)c2)CC1
5. COc1cc2ncnc(Nc3ccc(F)c(Cl)c3)c2cc1NC(=O)/C=C/CN1CCCCC1

(A)
[59, 30, 1.74, 29, 69]

Your task in this section: give inhibition at 1 µM for each listed record.
1. CCN1C(=O)N(c2c(F)c(OC)cc(OC)c2F)Cc2cnc3[nH]c(CN4CCOCC4)cc3c21
2. C[C@H](Nc1ncnc2nc[nH]c12)c1cc2cccc(Cl)c2c(=O)n1-c1ccccc1
3. CO[C@]1(C(=O)N[C@@H](C)c2ccc(-n3cc(F)cn3)nc2)CC[C@H](c2nc(C)cc(Nc3cc(C)[nH]n3)n2)CC1
4. Cc1nc(NC(=O)N2CCC[C@H]2C(N)=O)sc1-c1ccnc(C(C)(C)C(F)(F)F)c1

(A)
69
2
99
0.405

Recorded values, source paper PMC9516332.
